# credit: the Human Domainome abundance scans (Beltran et al. 2025)

B1: Triacylglycerol hydrolase DDHD2, residues 389 to 447; numbered along this chain, O94830 (parent)
chain: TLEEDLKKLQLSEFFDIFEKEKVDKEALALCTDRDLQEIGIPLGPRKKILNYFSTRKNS

Variants of: B1
Assay: abundance fitness (aPCA) (normalised: wild type 0, dead -1); higher = more abundant; growth selection in yeast, the domain comes from the species named
Conditions: Homo sapiens
Measured abundance fitness accompanies every entry in the list below.

Answered examples (4):
1. K48S    -0.075
2. L50A    -0.415
3. R46Q    -0.243
4. I39H    -0.341

IN: Which abundance fitness value belongs to "F53K" ?
OUT: 0.031

IN: // query abundance fitness value for entry "E4I"
OUT: -0.432

IN: Which abundance fitness reading was recorded for the variant "S54N" ?
OUT: -0.152

IN: Name the reported abundance fitness value associated with the variant "E21H"
OUT: 0.155

IN: Look up abundance fitness for this variant: "I49D"
OUT: -0.125

IN: For the variant "R46C" , what abundance fitness is on record?
OUT: -0.172

IN: # get_value(readout='abundance fitness', item= "T1D" )
OUT: 0.014

IN: I would be grateful if you could share the reported abundance fitness for "L6Y" .
OUT: -0.675

IN: Any idea what its abundance fitness is? The variant is "T1I"
OUT: -0.572

IN: Requested read-out: abundance fitness. Entry: "D24E"
OUT: -0.023

IN: Recorded abundance fitness for "P45N" , please?
OUT: -0.274
